The measurements presented in this section are drawn from patent EP4635500A1.

MIC: recorded values
System: A. baumannii
TEST_METHOD_NOTES: MIC, broth microdilution, CDC/FDA Antibiotic Resistance Isolate Bank (Example 7, Tables 9, 13, 14)
Format: cell-based, Acinetobacter baumannii
TEST_PARAMETERS: Acinetobacter baumannii, KUB No. 5729, AR Bank #296; read-out: MIC

INPUT_SMILES: O=C(O)c1cn(C2CC2)c2cc(N3CCNCC3)c(F)cc2c1=O
RESULT: > 64 µg/mL

INPUT_SMILES: CO/N=C(\C(=O)N[C@@H]1C(=O)N2C(C(=O)[O-])=C(C[n+]3ccn4ncccc43)CS[C@H]12)c1nsc(N)n1
RESULT: > 64 µg/mL

*Q* Look up and state reported MIC for `NCC[C@H](O)C(=O)N[C@@H]1C[C@H](N)[C@@H](O[C@H]2O[C@H](CN)[C@@H](O)[C@H](O)[C@H]2O)[C@H](O)[C@H]1O[C@H]1O[C@H](CO)[C@@H](O)[C@H](N)[C@H]1O`
*A* > 64 µg/mL

====

// MIC lookup, one value per entry
Tested on: A. baumannii
TEST_METHOD_NOTES: MIC, broth microdilution, CDC/FDA Antibiotic Resistance Isolate Bank (Example 7, Tables 9, 13, 14)
Type: cell-based, Acinetobacter baumannii
TEST_PARAMETERS: Acinetobacter baumannii, A. baumannii KUB No. 5707, AR Bank #274; OXA-66, OXA-72; read-out: MIC
// note: answer is a bare numeric in µg/mL

Completed entries (count: 2):
COMPOUND: CO/N=C(\C(=O)N[C@@H]1C(=O)N2C(C(=O)[O-])=C(C[n+]3ccn4ncccc43)CS[C@H]12)c1nsc(N)n1 [Cefozopran, cefozopran]
MIC (µg/mL): 16

COMPOUND: CC(C)(O/N=C(\C(=O)N[C@@H]1C(=O)N2C(C(=O)[O-])=C(C[N+]3(CCNC(=O)c4ccc(O)c(O)c4Cl)CCCC3)CS[C@H]12)c1csc(N)n1)C(=O)O [Cefiderocol, cefiderocol]
MIC (µg/mL): 0.12

*Q* Provide MIC value for the following compound: CN(C)c1cc(NC(=O)CNC(C)(C)C)c(O)c2c1C[C@H]1C[C@H]3[C@H](N(C)C)C(O)=C(C(N)=O)C(=O)[C@@]3(O)C(O)=C1C2=O [Tigecycline, tigecycline]
*A* 1

====

System: P. aeruginosa
TEST_METHOD_NOTES: MIC, broth microdilution, CDC/FDA Antibiotic Resistance Isolate Bank (Example 7, Tables 10, 15)
Format: cell-based
TEST_PARAMETERS: Pseudomonas aeruginosa, P. aeruginosa KUB No. 579, AR Bank # 447; read-out: MIC
ENDPOINT_LABEL: MIC

Solved entries (count: 3):
INPUT_SMILES: CC(C)(O/N=C(\C(=O)N[C@@H]1C(=O)N2C(C(=O)[O-])=C(C[N+]3(CCNC(=O)c4ccc(O)c(O)c4Cl)CCCC3)CS[C@H]12)c1csc(N)n1)C(=O)O
MIC: 0.12 µg/mL
--
INPUT_SMILES: CN(C)c1cc(NC(=O)CNC(C)(C)C)c(O)c2c1C[C@H]1C[C@H]3[C@H](N(C)C)C(O)=C(C(N)=O)C(=O)[C@@]3(O)C(O)=C1C2=O
MIC: 4 µg/mL
--
INPUT_SMILES: CO/N=C(\C(=O)N[C@@H]1C(=O)N2C(C(=O)[O-])=C(C[n+]3ccn4ncccc43)CS[C@H]12)c1nsc(N)n1
MIC: 0.5 µg/mL

*Q* Fill in MIC for `C[C@H]1[C@H](NC(=O)/C(=N\OC(C)(C)C(=O)O)c2csc(N)n2)C(=O)N1S(=O)(=O)O` tested with P. aeruginosa.
*A* 4 µg/mL
